Reference for the values: PubChem BioAssay AID1159580

- experimentNotes: chemical genetic growth profiling, strain panel (AID 1159580);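 further: tested at 20 µM; growth read once vehicle control cultures reached saturation at 30 °C; 1 = growth at the plate median or of vehicle wells; lower values mean less growth of the strain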
- conditionInfo: S. cerevisiae deletion strains, growth OD, locus YJL134W, strain LCB3, stronger effect = lower value
About 2,000 (36%) of roughly 5,500 compounds were called active. Another 18% or so got no clear call; they are omitted. The list shows a part of the results.
assayEndpoint: normalized growth
API doc: respond with a numeric literal and nothing else, no unit.

Some molecules with known normalized growth results, for comparison:
molecule: COc1ccc(C(=O)N2CCCC2=O)cc1
normalized growth: 0.977
//
molecule: CC1CCC2(OC1)OC1CC3C4CCC5C[C@@H](O)CCC5(C)C4=CCC3(C)C1[C@@H]2C (some centres not stated)
normalized growth: 0.987

Switching to the query record.
Q. normalized growth for C[C@@H](N)[C@@H](O)c1ccccc1 ?
A. 0.988

###

Parameter: normalized growth. Scope: all listed entries.
- experimentNotes: chemical genetic growth profiling, strain panel (AID 1159580);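 further: tested at 20 µM; growth read once vehicle control cultures reached saturation at 30 °C; 1 = growth at the plate median or of vehicle wells; lower values mean less growth of the strain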
- conditionInfo: S. cerevisiae deletion strains, growth OD, locus YDL101C, strain DUN1, stronger effect = lower value
Screen size: about 5,500 compounds; about 2,000 (36%) were called active. About 18% were inconclusive and are not listed. The list shows a part of the results.

Record excerpt, results attached:
compound: COc1ccc(-n2c(-c3ccc(C)cc3)csc2=N)cc1
normalized growth: 1 (inactive)
--
compound: NNCCc1ccccc1
normalized growth: 0.975 (inactive)
--
compound: CN[C@@H]1[C@H](OC2[C@H](O[C@H]3[C@H](O)[C@@H](O)[C@H](N=C(N)N)[C@@H](O)[C@@H]3N=C(N)N)O[C@@H](C)[C@]2(O)C=O)O[C@@H](CO)[C@H](O)[C@H]1O (some centres undefined)
normalized growth: 1.01 (inactive)
--
compound: O=C(NNc1c(Cl)cc(Cl)cc1Cl)NC(=O)c1ccccc1F
normalized growth: 0.998 (inactive)
--
compound: COc1c2ccccc2nc2occc12
normalized growth: 0.934 (inactive)
--
compound: CN(C)CCOC(=O)C(c1ccccc1)C1(O)CCCC1 (centres undefined)
normalized growth: 0.998 (inactive)
--
compound: COC(=O)CCCOc1ccc(Cl)cc1Cl
normalized growth: 1.02 (inactive)
--
compound: COC(=O)COc1ccc(C(C)=O)cc1
normalized growth: 0.96 (inactive)
--
compound: CC(=O)c1ccc(-c2ccc(Cl)c(Cl)c2)o1
normalized growth: 0.661 (active)
--
compound: NS(=O)(=O)c1cc2c(cc1Cl)NC(C1CC3C=CC1C3)NS2(=O)=O (centres undefined)
normalized growth: 0.967 (inactive)

Q. Fill blank: measured normalized growth of the compound OC1(c2ccc(Cl)cc2)CSc2nc3cc(C(F)(F)F)ccc3n21 (centres undefined) is ____.
A. 0.995 (inactive)

Q. Entry O=c1[nH]cnc2[nH]ncc12 please
A. 1.01 (inactive)

Q. Next compound up: NNC(=O)c1csc(Cc2c(Cl)sc3ccc(Cl)cc23)n1
A. 0.985 (inactive)

Q. How about this compound: COc1ccc(C(=O)C2CCNCC2)cc1
A. 0.972 (inactive)

Q. // query: O=c1cc(-c2ccccc2)oc2cc(O)cc(O)c12
A. 0.987 (inactive)

Q. Can you handle C=C[C@H]1CN2CC[C@H]1C[C@@H]2[C@H](O)c1ccnc2ccccc12 next?
A. 0.985 (inactive)

Q. Also Cc1onc(-c2ccccc2)c1-c1nc(CSc2ccc(C(F)(F)F)cn2)no1 , if possible.
A. 0.968 (inactive)

Q. What about this compound? NCC(CC(=O)O)c1ccc(Cl)cc1 (centres undefined)
A. 1.01 (inactive)

Q. Thanks! And C/C(=N/Nc1ccccc1)c1cc(Cl)cc(Cl)c1O ?
A. 0.969 (inactive)

Q. Another compound to look at: COc1ccc(C(=O)NCc2csc3ccc(Cl)cc23)cc1OC
A. 0.973 (inactive)

Q. What about COc1ccc(C=Nc2ccc(O)cc2)cc1 ?
A. 1.03 (inactive)

Q. Quick one: C[C@H](CCC(=O)O)[C@H]1CCC2C3C(CC[C@@]21C)[C@@]1(C)CC[C@@H](O)C[C@H]1C[C@H]3O (some centres undefined)
A. 1.02 (inactive)

Q. Now consider O=C(O)CCCOc1ccc(Cl)cc1Cl .
A. 1.01 (inactive)

Q. Do the same for O=c1cc(-c2ccccc2)oc2c(O)c(O)ccc12 please
A. 0.948 (inactive)

Q. What about this compound? COc1c2ccoc2nc2c(OC)c(OCC(O)C(C)(C)O)ccc12 (centres undefined)
A. 1 (inactive)

Q. Same read-out for O=C(CSc1nnc(NC(=O)c2cccc([N+](=O)[O-])c2)s1)Nc1ccc2c(c1)OCO2 ?
A. 0.986 (inactive)

Q. Do the same for CN(C)CCOC(=O)COc1ccc(Cl)cc1 please
A. 1.02 (inactive)

Q. Further, for COc1ccc(OCC(N)=O)cc1 ?
A. 1.01 (inactive)

Q. Continue with Cc1nc2ccccn2c(=O)c1CCN1CCC(C(=O)c2ccc(F)cc2)CC1
A. 1.04 (inactive)

Q. # repeat for CC1=C2[C@H]3OC(=O)[C@@H](C)[C@@H]3CC[C@@]2(C)C=CC1=O
A. 1.02 (inactive)

Q. What do you get for O=C(Nc1nncs1)c1ccncc1 ?
A. 0.999 (inactive)
